target: KRAS G12V (Homo sapiens, UniProt P01116, G12V); assay: HTRF KRAS-SOS1 interaction assay, KRAS G12V; conditions: binned ≤2 μM / >2 μM, read-out: Inhibition of KRAS G12V (IC50)
Sequence (P01116 1-188 isoform P01116-2 G12V): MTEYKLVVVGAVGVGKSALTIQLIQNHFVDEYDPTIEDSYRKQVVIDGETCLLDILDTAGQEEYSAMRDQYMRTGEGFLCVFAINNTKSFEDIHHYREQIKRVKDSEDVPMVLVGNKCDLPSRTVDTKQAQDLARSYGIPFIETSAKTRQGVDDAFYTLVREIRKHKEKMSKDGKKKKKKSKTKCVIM
pIC50: −log10 of the molar value.
Entries and their pIC50

Q: # pIC50 lookup, item C#C[C@H]1COc2c(Cl)c(-c3ccc(F)c4sc(N)c(C#N)c34)c(F)c3nc(OC[C@@]45CCCN4C[C@H](F)C5)nc(c23)N1C(C)c1cccnc1N (single isomer, unassigned)
Result: ≥ 5.70

Q: Can you check C[C@H](c1cccnc1N)N1CCOc2c(C(F)(F)F)c(-c3ccc(F)c4sc(N)c(C#N)c34)c(F)c3nc(OCC4(CN5CCC6(CC5)CC6(F)F)CC4)nc1c23 (atropisomer, axis not shown) next?
Result: ≥ 5.70

Q: Would you kindly repeat that for CO[C@H]1CCN(C)[C@@H]1[C@H](C)Oc1nc2c3c(c(C(F)(F)F)c(-c4ccc(F)c5sc(N)c(C#N)c45)c(F)c3n1)OCCN2[C@H](C)c1cc(F)cnc1N ?
Result: ≥ 5.70

* * *

molecular target: KRAS G12V (Homo sapiens, UniProt P01116, G12V); assay: HTRF KRAS-SOS1 interaction assay, KRAS G12V; details: binned ≤2 μM / >2 μM, read-out: Inhibition of KRAS G12V (IC50)
pIC50: −log10 of the molar value.
# pIC50 listing for each entry below

// below: answered molecules
C[C@H](c1nccnc1N)N1CCOc2c(C(F)(F)F)c(-c3ccc(F)c4sc(N)c(C#N)c34)c(F)c3nc(OC[C@@]45CCCN4C[C@H](F)C5)nc1c23 (single isomer, unassigned) [Compound 797]; < 5.70
N#Cc1c(N)sc2c(F)ccc(-c3c(C(F)(F)F)c4c5c(nc(OC[C@@]67CCCN6C[C@@]6(CC6(F)F)C7)nc5c3F)N([C@H](CCC(F)(F)F)c3cc(F)cnc3N)CCO4)c12; ≥ 5.70
Cc1c(F)c(N)cc(-c2nc3c4c(nc(OC[C@@]56CCCN5C[C@H](F)C6)nc4c2F)N([C@H](C)c2cccnc2N)CCO3)c1C(F)(F)F (single isomer, unassigned); ≥ 5.70
N#Cc1c(N)sc2c(F)ccc(-c3c(C(F)(F)F)c4c5c(nc(OC[C@@]67CCCN6C[C@H](F)C7)nc5c3F)N([C@H](CCC3CCOCC3)c3cccnc3N)CCO4)c12 (single isomer, unassigned); ≥ 5.70

Q: I am curious: what pIC50 value has been reported for CO/N=C1\CN2CCC[C@@]2(COc2nc3c4c(c(Cl)c(-c5ccc(F)c6sc(N)c(C#N)c56)c(F)c4n2)OCCN3[C@H](C)c2cccnc2N)C1 (single isomer, unassigned) ?
Result: ≥ 5.70

Q: Same for C[C@@H]1COCCN1CC1(COc2nc3c4c(c(C(F)(F)F)c(-c5ccc(F)c6sc(N)c(C#N)c56)c(F)c4n2)OCCN3[C@H](C)c2cccnc2N)CC1 (single isomer, unassigned) [Compound 807]
Result: < 5.70

Q: Now give it for C/C=C/[C@H](c1cccnc1N)N1CCOc2c(Cl)c(-c3ccc(F)c4sc(N)c(C#N)c34)c(F)c3nc(OC[C@@]45CCCN4C[C@H](F)C5)nc1c23 (mixture of isomers) too.
Result: ≥ 5.70

Q: Next: C[C@H](c1cccnc1N)N1CCOc2c(Cl)c(-c3ccc(F)c4sc(N)c(C#N)c34)c(F)c3nc(OC[C@@H]4CC(F)(F)CN4C)nc1c23 (single isomer, unassigned)
Result: ≥ 5.70

Q: What about this molecule? N#Cc1c(N)sc2c(F)ccc(-c3c(C(F)(F)F)c4c5c(nc(OC[C@@]67CCCN6C[C@H](F)C7)nc5c3F)N([C@H](CC3CCOC3)c3cccnc3N)CCO4)c12 (single isomer, unassigned) [Compound 692]
Result: ≥ 5.70

// data source = patent US12668600B2
